selectivity ratio values for the molecules below.
assay_procedure: Loss of tail withdrawal reflex (LOTWR) in rats, single intravenous injection, dose escalation for efficacy and severe adverse reactions
Assay type: in vivo, SD rats
settings: rat, in vivo, single intravenous injection, minimum dose resulting in serious adverse reactions / minimum effective dose, class symbol, read-out: The safety therapeutic index
measurement_name: selectivity ratio

mol	measurement
Cc1ccc(NCC(=O)OCc2ccco2)cc1N(C)C	> 4
Cc1ccc(NCC(=O)OCc2ccnn2C)cc1N(C)C	> 4
CN(C)c1cccc(NCC(=O)OCc2cccs2)c1	≤ 2
Cc1ccc(NCC(=O)NCc2ncc[nH]2)c(N(C)C)c1	≤ 2
Cc1ccc(NCC(=O)OCc2cccs2)cc1N(C)C	> 4
Cc1ccc(NCC(=O)NCc2cccs2)cc1N(C)C	≤ 2
